Measured SPOT peptide array binding signal intensity accompanies every entry in the list below.
# Assay Target: ScBem1-D1
# Test Details: SPOT peptide array binding signal intensity (averaged, normalized) (arbitrary units (background-subtracted, floor 0; scale differs between SH3 domains)); higher = stronger binding of the SH3 domain to the peptide

Known SPOT peptide array binding signal intensity results, listed for orientation:
Query string: Could you share which SPOT peptide array binding signal intensity value was measured for `YLTRPLPSTPNEDSR` ?
Result string: ≤ 0

Query string: Could you share which SPOT peptide array binding signal intensity value was measured for `RPVPPPPPMRTTTEG` ?
Result string: ≤ 0

For the next question, use this binder.
Query string: Could you share which SPOT peptide array binding signal intensity value was measured for `GPPPPLPPPLFPSSS` ?
Result string: ≤ 0

Sourced from the supplement of paper PMC4466140
